meta.source: ChEMBL document CHEMBL4014264

Recorded pIC50 for the following molecules
# Assay text: Cytotoxicity against human KKU-M213 cells assessed as reduction in cell viability after 72 hrs by SRB assay
# Type: functional, cell-based
# Measurement setup: KKU-M213, 72 h
Interpret pIC50 as the negative base-10 log of the concentration measured in mol/L.

{"Molecule": "CC(=O)OC(CC1OC1(C)C)/C(C)=C/COc1ccc(CCNC(=O)c2ccccc2)cc1 (configuration not stated)", "pIC50": 4.95}
{"Molecule": "CCCCCCCCCCCCCCCC(=O)OC(C)(C)C(O)CC(O)/C(C)=C/COc1ccc(CCNC(=O)c2ccccc2)cc1 (racemic)", "pIC50": 4.79}
{"Molecule": "CCCCCCCCCCCCCC(=O)OC(CC(OC(C)=O)C(C)(C)O)/C(C)=C/COc1ccc(CCNC(=O)c2ccccc2)cc1 (racemic)", "pIC50": 5.63}
{"Molecule": "CCCCCCCCCCCCCCCC(=O)OC(CC(O)C(C)(C)O)/C(C)=C/COc1ccc(CCNC(=O)c2ccccc2)cc1 (racemic)", "pIC50": 5.25}
{"Molecule": "C/C(=C\\COc1ccc(CCNC(=O)c2ccccc2)cc1)C(O)CC(O)C(C)(C)O (configuration not stated)", "pIC50": 4.59}
{"Molecule": "CCCCCCCCCCCCCCCCCC(=O)OC(CC(OC(C)=O)C(C)(C)O)/C(C)=C/COc1ccc(CCNC(=O)c2ccccc2)cc1 (racemic)", "pIC50": 4.54}
{"Molecule": "C/C(=C\\COc1ccc(CCNC(=O)c2ccccc2)cc1)C1CC(O)C(C)(C)O1 (racemic)", "pIC50": 4.91}
{"Molecule": "CC(=O)OC(CC(O)C(C)(C)O)/C(C)=C/COc1ccc(CCNC(=O)c2ccccc2)cc1 (configuration not stated)", "pIC50": 4.54}
{"Molecule": "CCCCCCCCCCCCCCCC(=O)OC(CC(OC(C)=O)C(C)(C)O)/C(C)=C/COc1ccc(CCNC(=O)c2ccccc2)cc1 (racemic)", "pIC50": 4.46}
{"Molecule": "CCCCCCCCCCCCCCCC(=O)OC(CC(O)/C(C)=C/COc1ccc(CCNC(=O)c2ccccc2)cc1)C(C)(C)O (racemic)", "pIC50": 4.63}

Return reported pIC50; argument: Cc1c2ccncc2c(C)c2c1[nH]c1ccccc12 [ELLIPTECINE]
5.18

Suppose we examine the molecule CCCCCCCCCCCCCCCC(=O)OC(CC1OC1(C)C)/C(C)=C/COc1ccc(CCNC(=O)c2ccccc2)cc1 (configuration not stated) ; what pIC50 value has been reported?
5.57
